tested on: Plasmodium falciparum; assay: Hit confirmation in dose-response curve in NF54 pLDH assay, at 72h; assay type: functional, organism-based; set-up: timepoint 72 hour; conditions: NF54, Erythrocyte
MEASUREMENT_LABEL: IC50 (µM)
Write the number in µM without appending the unit.

CCNC(=O)N1CC[C@H](Oc2ccc3ccccc3n2)C1    7.41
CCN1CCN(C(=O)c2ccccc2N2CCC(NC(=O)c3cccc(Br)c3)CC2)CC1    1.66
CN(Cc1ccc(-c2ccccc2)cc1)c1cc([C@H]2C[C@@H](N)C2)nc(N)n1    4.17

Please report the measured IC50 for CC(C)c1cc(CN(Cc2cc(C(C)C)c(O)c(C(C)C)c2)C2CCCCC2)cc(C(C)C)c1O 0.151

====

test system: Plasmodium falciparum; assay: Hit confirmation in dose-response curve in NF54 nanoGlo assay, at 72h; type: functional, organism-based, Erythrocyte; design: timepoint 72 hour; settings: Plasmodium falciparum, NF54, Erythrocyte, 72 h
pIC50: −log10 of the molar value.
Classification field: Satisfied = pIC50 at or over 6; Not satisfied = pIC50 under 6.

Known results for compounds:
Cc1ccc(-c2cc(C(=O)Nc3nnc(C(C)C)s3)no2)cc1F    Not satisfied
Cc1ccc2c(c1)CCCN2C(=O)CN1CC=C(c2cnn(C)c2)CC1    Not satisfied
CC(C)Nc1nc2nonc2n2cnnc12    Not satisfied

API: above_or_equal(metric=pIC50, cutoff=6) for item COc1ccc(CNC(=O)c2ccc(N3C(=O)[C@@H]4Cc5c([nH]c6ccccc56)C(c5cccc(OC)c5)N4C3=O)cc2)cc1 (some centres not stated) Not satisfied

API: above_or_equal(metric=pIC50, cutoff=6) for item Cc1cc(C)n(-c2nc(Nc3ccc(Cl)cc3)nc(Nc3ccc(Cl)cc3)n2)n1 Not satisfied

API: above_or_equal(metric=pIC50, cutoff=6) for item Cc1nc(C(=O)Nc2[nH]c(=O)ncc2F)c(-c2ccccc2)o1 Satisfied

====

test system: Plasmodium falciparum; experiment: Hit confirmation in dose-response curve in NF54 pLDH assay, at 72h; assay type: functional, organism-based; parameters: timepoint 72 hour; settings: NF54, Erythrocyte
pIC50: −log10 of the molar value.
MEASUREMENT_LABEL: pIC50

COc1cccc(-c2nc(C)c(C(=O)Nc3nc(C(C)C)n[nH]3)s2)c1    < 5.00
Cc1ccc(-c2cc(C(=O)Nc3nnc(C(C)C)s3)no2)cc1F    < 5.00

Alright, here's another compound for you.
Please report the measured pIC50 for COc1ccc(CNc2nc(-c3nnc(-c4ccccc4)o3)nc3ccccc23)cc1 < 5.00

====

test system: Plasmodium falciparum; assay: Hit confirmation in dose-response curve in NF54 nanoGlo assay, at 72h; assay type: functional, organism-based, Erythrocyte; set-up: timepoint 72 hour; conditions: Plasmodium falciparum, NF54, Erythrocyte, 72 h
MEASUREMENT_LABEL: IC50 (µM)
Write the number in µM without appending the unit.

Worked examples, 2 compounds total:
CC(=O)c1cc(-c2cc(O)cc(CC[C@H]3CCCCN3)c2)ccc1O    1.51
COc1cccc(-c2cc(O)cc(CC[C@H]3CCCCN3)c2)n1    1.23

Alright, here's another compound for you.
Please report the measured IC50 for COc1ccc(CCNC(=O)c2cc3c(=O)[nH]c(C)cn3n2)cc1OC 1.45

====

system: Plasmodium falciparum; assay: Hit confirmation in dose-response curve in NF54 nanoGlo assay, at 72h; assay type: functional, organism-based, Erythrocyte; design: timepoint 72 hour; settings: Plasmodium falciparum, NF54, Erythrocyte, 72 h
Some compounds, each annotated with its measured IC50.
Write the number in nM without appending the unit.

Worked examples, 4 compounds total:
COc1ccc(NC(=O)C2(N(Cc3ccccc3)C(=O)Cn3nnc4ccccc43)CCCCC2)cc1    4470
CC1=CC(=[N+](CCO)CCO)C=C/C1=C(\c1ccc(N(CCO)CCO)cc1C)c1ccccc1Cl    87.1
CC(C)c1cc(=O)[nH]c(-n2nc(C3CC3)cc2NC(=O)Cc2ccc(Cl)cc2)n1    1910
CCCN1C(=O)c2ccccc2N2C(=O)CC[C@@]12C(=O)Nc1ccccc1    1100

Alright, here's another compound for you.
Name the value of IC50 reported for Cc1ccc(C(F)(F)C(=O)NCCC(=O)NS(C)(=O)=O)cc1 when tested on Plasmodium falciparum. 2750

====

test system: Plasmodium falciparum; test: Hit confirmation in dose-response curve in NF54 nanoGlo assay, at 72h; assay type: functional, organism-based, Erythrocyte; design: timepoint 72 hour; conditions: Plasmodium falciparum, NF54, Erythrocyte, 72 h
MEASUREMENT_LABEL: IC50 (nM)
Write the number in nM without appending the unit.

CCC(=O)N(Cc1ccc(-c2ccc(Cl)cc2)o1)[C@H]1CCS(=O)(=O)C1    1660

Name the value of IC50 reported for CN(C)Cc1ccc(NC(=O)c2cc(F)cc3c(=O)c4cc(F)ccc4[nH]c23)cc1 when tested on Plasmodium falciparum. 525

Name the value of IC50 reported for COc1ccc(CCc2nc(NC(=O)c3nc(C)sc3C)n[nH]2)cc1OC when tested on Plasmodium falciparum. 1450

Name the value of IC50 reported for Cn1n[n+](CCCCC(Cl)(Cl)Cl)c2ccccc21 when tested on Plasmodium falciparum. 2820

====

test system: Plasmodium falciparum; experiment: Hit confirmation in dose-response curve in NF54 nanoGlo assay, at 72h; format: functional, organism-based, Erythrocyte; set-up: timepoint 72 hour; settings: Plasmodium falciparum, NF54, Erythrocyte, 72 h
MEASUREMENT_LABEL: log10 of IC50 (log10 of the value in µM)
// units: µM (pre-log); metric: IC50; scale: log10

Worked examples, 10 compounds total:
COc1cccc(-c2nc(C)c(C(=O)Nc3nc(C(C)C)n[nH]3)s2)c1    0.17
COc1ccc2c(/C=C/c3cc[n+](C)cc3)cn(Cc3ccccc3)c2c1    0.07
Oc1c([C@@H](c2ccccn2)N2CCCC2)ccc2cccnc12    0.33
c1ccc(CCNc2nc(-c3ccccn3)cs2)cc1    0.39
CCOc1ccc(C2c3[nH]c4ccccc4c3C[C@H]3C(=O)N(C4CCN(Cc5ccccc5)CC4)CC(=O)N23)cc1OC (stereo not given in full)    0.06
Cc1ccc(C2c3ccsc3CCN2CCC(=O)N2CCN(C(=O)Cc3cccs3)C(C)C2)cc1 (stereo not given)    0.95
c1ccc(-c2noc(-c3ccc(NC4CCCCC4)nn3)n2)cc1    0.49
c1ccc(C(c2ccccc2)N2CCN(c3nn4cnnc4c4ccccc34)CC2)cc1    0.24
COc1ccc(-c2cc3n(n2)C[C@@](C)(C(=O)NCc2ccccc2)N(Cc2ccc4c(c2)OCO4)C3=O)cc1    0.39
OC(CNC1CCCNc2ccccc21)c1ccc(Cl)s1 (stereo not given)    0.36

Name the value of log10 of IC50 reported for COc1ccc(F)cc1S(=O)(=O)N1CCc2noc(N)c2C1 when tested on Plasmodium falciparum. -0.80

Name the value of log10 of IC50 reported for CN1CCC(n2ncc3[nH]c(-c4ccc(C(F)(F)F)cc4)nc32)CC1 when tested on Plasmodium falciparum. -0.16

Name the value of log10 of IC50 reported for Cc1ccc(-c2cc(O)cc(CC[C@H]3CCCCN3)c2)c(C)n1 when tested on Plasmodium falciparum. 0.27

Name the value of log10 of IC50 reported for COc1ccc(CCNC(=O)C2CCN(c3nccn4nc5c(c34)CCCC5)CC2)cc1OC when tested on Plasmodium falciparum. 0.61

Name the value of log10 of IC50 reported for COc1ccc2c(c1)[n+](CC(=O)c1ccc(-c3ccc(Br)cc3)cc1)c(CO)n2C when tested on Plasmodium falciparum. 0.28

====

tested on: Plasmodium falciparum; assay: Re-testing in dose-response curve in 3D7 pLDH assay, at 72h; format: functional, organism-based; design: timepoint 72 hour; conditions: 3D7, Erythrocyte
Some compounds, each annotated with its measured IC50.
Write the number in µM without appending the unit.

Worked examples, 5 compounds total:
CC(C)c1ccc(-c2nc(CN3CCCCC3)cc(CN3CCCCC3)c2O)cc1    1.13
COc1ccccc1C(=O)NC1=NN2C(=NC(c3ccc(Cl)cc3)=C[C@H]2c2ccc(Cl)cc2)N1    4.93
CCOC(=O)c1c(CN2CCCC2)n(C)c2cc(-c3cccnc3)c(O)c(Cn3ccnc3)c12    3.65
Clc1ccc(COc2ccc(Cl)cc2CNCCCn2ccnc2)c(Cl)c1    1.01
CCn1cnc2c(N3CCC[C@H](c4ccncc4)C3)ncnc21    0.663

Please report the measured IC50 for Cc1ccc(Nc2ccc(N3CCNCC3)nn2)nc1 5.09

====

system: Plasmodium falciparum; assay: Hit confirmation in dose-response curve in NF54 pLDH assay, at 72h; format: functional, organism-based; design: timepoint 72 hour; conditions: NF54, Erythrocyte
MEASUREMENT_LABEL: IC50 (µM)
Write the number in µM without appending the unit.

Worked examples, 4 molecules total:
CC(C)(C)n1nc2nc(NCCN3CCCCC3)nc(-c3ccc(F)c(Cl)c3)c2c1N    2.88
O=S(=O)(c1cccc(Cl)c1)N1CCc2nc(N3CCCCC3)nc(Oc3ccccc3)c2C1    3.02
C[C@@]1(C(=O)NCc2ccccc2)Cn2nc(-c3ccccc3)cc2C(=O)N1c1ccc2c(c1)OCCO2    9.77
CN1CCC(NCC[C@@H](Cc2ccccc2Cl)c2ccc(Cl)cc2)CC1    2.57

Please report the measured IC50 for Cc1ccc(S(=O)(=O)Nc2cc3nc4ccccc4nc3n2CCc2ccccc2)cc1 10
